# experimental_system: Methyl-CpG-binding domain protein 4 (Homo sapiens) (UniProt O95243);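 also: MBD4 activity read as fluorescence at 594 nm from cleavage and release of a quenched duplex DNA oligonucleotide, with APE1 coupled to incise the strand and raise turnover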
# Sequence (O95243 whole entry, the tested form may be a part): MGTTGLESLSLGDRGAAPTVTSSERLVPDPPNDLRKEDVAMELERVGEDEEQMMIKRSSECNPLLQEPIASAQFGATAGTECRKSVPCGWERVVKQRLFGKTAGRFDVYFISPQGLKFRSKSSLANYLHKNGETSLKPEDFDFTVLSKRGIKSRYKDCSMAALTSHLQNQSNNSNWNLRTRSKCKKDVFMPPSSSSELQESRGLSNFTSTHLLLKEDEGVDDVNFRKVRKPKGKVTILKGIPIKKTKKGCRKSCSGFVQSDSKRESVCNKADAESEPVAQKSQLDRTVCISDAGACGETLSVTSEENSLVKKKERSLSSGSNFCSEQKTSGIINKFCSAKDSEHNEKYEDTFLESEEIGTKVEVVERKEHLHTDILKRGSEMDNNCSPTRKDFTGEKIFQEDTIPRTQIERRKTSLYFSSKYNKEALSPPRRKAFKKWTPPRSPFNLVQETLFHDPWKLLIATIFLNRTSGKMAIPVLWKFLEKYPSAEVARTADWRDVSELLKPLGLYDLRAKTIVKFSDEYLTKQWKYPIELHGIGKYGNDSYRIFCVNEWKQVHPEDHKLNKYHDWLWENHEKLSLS
# protocol_conditions: Compound Concentration 10.0 uM, Hit No
# Description: Inhibition of MBD4 by quantifying inhibition of MBD4-mediated cleavage and dissociation of quenched duplex DNA oligonucleotides, measured as fluorescence at 594 nm. To generate a functional strand incision and increase turn-over this assay is coupled to APE1.
Entries and their measured inhibition follow.
Write it as a number; the unit % goes unstated.

Illustrative cases are given below, each with its answer.
molecule=O=C(Nc1ccccc1Br)N[C@@H]1CCN(c2ccc(C(F)(F)F)cn2)C1 quantity_name=inhibition reported=41.6
molecule=Cc1ccc2c(c1CCC(=O)O)CC[C@@H](NS(=O)(=O)c1ccc(Cl)cc1)C2 quantity_name=inhibition reported=16.2
molecule=CCCCCCCCc1ccc(CC[C@](N)(CO)COP(=O)(O)O)cc1 quantity_name=inhibition reported=-2.75

Could you now look at the following molecule, please?
Sure, the documented inhibition for N#Cc1ccc(O[C@@H]2c3ccccc3C[C@H]2N2CCC[C@@H](N)C2)c(Cl)c1 is -4.66
